- METHOD DESCRIPTION: chemical genetic growth profiling, strain panel (AID 1159580);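 further: tested at 20 µM; growth read once vehicle control cultures reached saturation at 30 °C; 1 = growth at the plate median or of vehicle wells; lower values mean less growth of the strain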
- MEASUREMENT PARAMETERS: S. cerevisiae deletion strains, growth OD, locus YBR171W, strain sec66, stronger effect = lower value
In all, about 5,500 compounds went through this assay and about 2,000 (36%) were called active. Inconclusive results (about 18%) are left out. The list shows a part of the results.
QUANTITY NAME: normalized growth
Reply briefly: the number, and no unit.

Guide cases for normalized growth, answers given:
CC(C)c1nc(N(C)S(C)(=O)=O)nc(-c2ccc(F)cc2)c1/C=C/[C@@H](O)C[C@@H](O)CC(=O)O = 1.01
COC(=O)[C@@H]1OC(=O)C2OC23[C@@]1(C)CCC1[C@@]2(C)CCC(=O)C(C)(C)C2C[C@@H](OC(C)=O)[C@]13C (stereo not given in full) = 1.02
C[C@]12C=CC(=O)C=C1CCC1C2[C@@H](O)C[C@@]2(C)C1CC[C@]2(O)C(=O)CO (stereo not given in full) = 1.01

Task: Find the recorded normalized growth belonging to CN(C)CCC(c1ccccc1)c1ccccn1 (stereo not given) and report it.
Result: 1.03

Task: Another: NCCCNCCSP(=O)(O)O
Result: 0.96
